MEASURED_TARGET: HLA-A*24:02
ASSAY_INFO: IEDB peptide-MHC binding, purified MHC/competitive/radioactivity; bounds were set here for any values at or beyond the usual limits of such assays
EXPERIMENTAL_SETUP: source organism: Human papillomavirus 16
MEASUREMENT_TYPE: IC50
In your response, put the unit directly after the numeric value.

Some sequences with known IC50 results, for comparison:
RFHNIRGRW
220 nM
RAHYNIVTF
290 nM
VYDFAFRDL
360 nM

The following sequences each have a reported value; give each one's IC50.
1. CYSLYGTTL
2. FYSRIREL

// result
["137 nM", "461 nM"]

---

Please respond with reported pIC50 for every item in the list.
MEASURED_TARGET: HLA-A*11:01
ASSAY_INFO: IEDB peptide-MHC binding, purified MHC/competitive/radioactivity; bounds were set here for any values at or beyond the usual limits of such assays
EXPERIMENTAL_SETUP: source organism: Human papillomavirus 16
Answers are plain numbers, as −log10 of the molar value.

Some sequences with known pIC50 results, for comparison:
LLIRCINCQK
7.62
GIVCPICSQK
7.01
DIILECVYCK
6.55
FQDPQERPRK
6.34
IILECVYCK
6.90

The following sequences each have a reported value; give each one's pIC50.
1. AMFQDPQER
2. IVYRDGNPY

// result
1. 7.92
2. 7.68

---

Please respond with reported pIC50 for every item in the list.
MEASURED_TARGET: HLA-A*03:01
ASSAY_INFO: IEDB peptide-MHC binding, purified MHC/competitive/radioactivity; bounds were set here for any values at or beyond the usual limits of such assays
EXPERIMENTAL_SETUP: source organism: Human papillomavirus 16
Numbers only, as −log10 of the molar value.

Some sequences with known pIC50 results, for comparison:
HLDKKQRFH
7.17
AMFQDPQER
6.54

# ---- query sequence ----
// query What pIC50 value was documented for this sequence, LLIRCINCQK ?
// result 7.04

---

MEASURED_TARGET: HLA-A*03:01
ASSAY_INFO: IEDB peptide-MHC binding, purified MHC/competitive/radioactivity; filed as Kd, often an IC50 or EC50 that approximates it; bounds were set here for any values at or beyond the usual limits of such assays
EXPERIMENTAL_SETUP: source organism: Human papillomavirus 16
Please respond with reported pKd for every item in the list.
Answers are plain numbers, as −log10 of the molar value.

SLYGTTLEQ
5.43

// query Lookup: pKd / HLA-A*03:01 / IILECVYCK
// result 5.43

---

MEASURED_TARGET: HLA-A*01:01
ASSAY_INFO: IEDB peptide-MHC binding, purified MHC/competitive/radioactivity; bounds were set here for any values at or beyond the usual limits of such assays
EXPERIMENTAL_SETUP: source organism: Human papillomavirus 16
MEASUREMENT_TYPE: IC50 (nM)
Numbers only, in nM.

The following sequences each have a reported value; give each one's IC50.
1. YSKISEYRHY
2. ETTDLYCY
3. ISEYRHYCY

// result
147
320
49

---

Please respond with reported Kd for every item in the list.
MEASURED_TARGET: HLA-A*01:01
ASSAY_INFO: IEDB peptide-MHC binding, purified MHC/competitive/radioactivity; filed as Kd, often an IC50 or EC50 that approximates it; bounds were set here for any values at or beyond the usual limits of such assays
EXPERIMENTAL_SETUP: source organism: Human papillomavirus 16
Numbers only, in µM.

Some sequences with known Kd results, for comparison:
TTDLYCYEQ
3.76
QAEPDRAHY
2.79
EIDGPAGQA
3.24

# ---- query sequence ----
// query What Kd value was documented for this sequence, HVDIRTLED ?
// result 3.76
